Where do the numbers come from? From the Human Domainome abundance scans (Beltran et al. 2025).

B1: Probable E3 ubiquitin-protein ligase MID2, residues 191 to 235; numbered along this chain, Q9UJV3 (parent)
chain: RGITCLDHENEKVNMYCVSDDQLICALCKLVGRHRDHQVASLNDR

# Variants of: B1
# experimental_details: abundance fitness (aPCA) (normalised: wild type 0, dead -1); higher = more abundant; growth selection in yeast, the domain comes from the species named
# condition: Homo sapiens
Record form. Attribute: abundance fitness. Fill in for each entry.
Respond using a number only.

// Input: RGITCLDHENEKVNKYCVSDDQLICALCKLVGRHRDHQVASLNDR [M15K] . Output its abundance fitness only. -0.176

// Input: RGITCLDHENEKVNMYCVSDDQLICALCKLVGRMRDHQVASLNDR [H34M] . Output its abundance fitness only. -0.677

// Input: RGITCLDHENEKVNMYCVSDDQLICALCKLVGRHRDHQVASTNDR [L42T] . Output its abundance fitness only. -0.096

// Input: RGITCLDHENEKVTMYCVSDDQLICALCKLVGRHRDHQVASLNDR [N14T] . Output its abundance fitness only. 0.049

// Input: RGITCLDHEFEKVNMYCVSDDQLICALCKLVGRHRDHQVASLNDR [N10F] . Output its abundance fitness only. -0.577

// Input: RGITDLDHENEKVNMYCVSDDQLICALCKLVGRHRDHQVASLNDR [C5D] . Output its abundance fitness only. -0.39

// Input: RGITCLDHENEKVNMYCVSDDQLICALCKLVGRHRDHQVESLNDR [A40E] . Output its abundance fitness only. 0.072
